# GFP response, % of DMSO per record follows
- PROCEDURE_DETAILS: modulators of CIT2-GFP expression in yeast, confirmation, S. cerevisiae, GFP fusion, cherry picks, mother/daughter gates (AID 2274)
- PARTICULARS: S. cerevisiae CIT2-GFP strain, flow cytometry, 3 h; measured here: mother cell gate; at 10 µM; stronger effect = higher value
Please state the figure in %; there is no need to write the unit.

C[C@]12CCC(=O)C=C1CC[C@@H]1[C@@H]2CC[C@]2(C)C(=O)CC[C@@H]12    99.7

query: Which GFP response, % of DMSO value belongs to Cc1ccc(/C=C2\C(=O)NC(=O)N(CC3CCCO3)C2=O)s1 (configuration not stated) ?
result: 79.5

query: Also CCN1C(=O)NC(=O)/C(=C\c2cn(CC(=O)N3CCCC3)c3ccccc23)C1=O , if possible.
result: 100

query: Now try O=c1[nH]c(=O)n(Cc2ccc(F)cc2)c(O)c1C=NCCN1CCCCC1 .
result: 94.9

----------
- EXPERIMENTAL_SYSTEM: Lethal factor (Bacillus anthracis) (UniProt P15917)
- Sequence (P15917 whole entry, looked up): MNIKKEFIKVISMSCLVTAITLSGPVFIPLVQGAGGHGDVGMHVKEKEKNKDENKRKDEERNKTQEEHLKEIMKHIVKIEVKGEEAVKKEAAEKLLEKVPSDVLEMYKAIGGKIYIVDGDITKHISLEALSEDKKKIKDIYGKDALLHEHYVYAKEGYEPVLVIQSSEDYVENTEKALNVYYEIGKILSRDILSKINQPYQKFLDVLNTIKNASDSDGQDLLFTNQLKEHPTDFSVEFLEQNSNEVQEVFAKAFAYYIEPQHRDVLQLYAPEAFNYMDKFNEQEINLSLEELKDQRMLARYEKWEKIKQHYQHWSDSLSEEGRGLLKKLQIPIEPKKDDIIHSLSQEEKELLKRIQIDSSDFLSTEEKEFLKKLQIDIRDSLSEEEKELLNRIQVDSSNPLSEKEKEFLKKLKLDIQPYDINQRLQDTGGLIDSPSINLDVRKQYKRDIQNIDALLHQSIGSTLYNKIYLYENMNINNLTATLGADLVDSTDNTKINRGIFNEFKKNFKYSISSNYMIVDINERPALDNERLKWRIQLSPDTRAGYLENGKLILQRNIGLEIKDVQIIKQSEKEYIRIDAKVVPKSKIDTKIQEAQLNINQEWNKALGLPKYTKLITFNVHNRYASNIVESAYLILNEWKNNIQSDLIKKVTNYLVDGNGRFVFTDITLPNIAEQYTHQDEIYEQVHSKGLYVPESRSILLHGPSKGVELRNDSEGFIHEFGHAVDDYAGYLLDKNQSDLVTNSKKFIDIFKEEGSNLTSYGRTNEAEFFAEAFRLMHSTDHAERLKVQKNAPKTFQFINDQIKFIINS
- PROCEDURE_DETAILS: Lethal factor protease inhibitors, Bacillus anthracis, multiplex microsphere cleavage assay, validation set (AID 588461)
- PARTICULARS: flow cytometry, at 10 µM, stronger effect = higher value
MEASURED_PROPERTY: inhibition (%)
Report the figure in % without appending any unit label.

O=C(c1cc2cc(Br)ccc2o1)N1CCCC1    -3.2

query: Lab note: need inhibition with Lethal factor (Bacillus anthracis) (UniProt P15917) for entry Cc1cc(C(C)(C)C)c(O)c(C)c1CC1=NCCN1 , please look it up.
result: 3.7

query: O=C(C1CCCCC1)N1CC(=O)N2CCc3ccccc3C2C1 (configuration not stated) , same question.
result: 3.9

query: Next compound up: COc1ccc(C(=O)Oc2ccc3c(C)cc(=O)oc3c2C(C)=O)cc1
result: 3

query: Request: COc1ccc(CN(CCN(C)C)c2ccccn2)cc1
result: -14.9

query: COc1ccc(-c2cc(C(=O)N3CCOCC3)c3cc(C)ccc3n2)cc1 ?
result: 2.3

query: Subsequent entry: COC(=O)c1cc(-c2ccc(C)o2)nc2ccccc12
result: 2.2

query: Also, O=C(COc1ccc(F)cc1)OCCN1CCOCC1 please.
result: -5.2

query: Record: CCc1cc2c3c(c(=O)oc2cc1O)CCCC3
result: 4.1

query: One more compound: CC(=O)OC[C@H]1O[C@@H](Sc2cccc3cccnc23)[C@H](OC(C)=O)[C@@H](OC(C)=O)[C@H]1OC(C)=O
result: 0.7

----------
- PROCEDURE_DETAILS: inhibitors of CD8+ T cell-vesicle binding, pilot screen, LFA-1/ICAM-1 modulator project, MLPCN validation set, flow cytometry (AID 2523)
- PARTICULARS: 2C mouse CD8+ T cells, at 7 µM, stronger effect = lower value; measured here: CD8+/vesicle+ event percentage
MEASURED_PROPERTY: double positive events (%)
Give your result in % as a bare value.

Previously resolved entries follow.
O=C(O)CCCc1ccc(N(CCCl)CCCl)cc1    63.4
CC12CC[C@H]3[C@@H](CCC4(O)C[C@H](O)CCC34/C=N/NC(=O)Cc3ccccc3)C1(O)CCC2C1=CC(=O)OC1 (some centres undefined)    65.3
NCC1(c2ccc3c(c2)OCCO3)CCCC1    60.7

Now, please, on to the next molecule.
query: State the recorded double positive events for this entry: CC(C)[C@@]1(NC(=O)[C@@H]2C[C@@H]3c4cccc5[nH]cc(c45)C[C@H]3N(C)C2)O[C@@]2(O)[C@@H]3CCCN3C(=O)[C@H](Cc3ccccc3)N2C1=O
result: 74.1

Where do the numbers come from? From PubChem BioAssay.
